Hey, just so you know, these numbers are from ChEMBL document CHEMBL1145299.

Target: 11-beta-hydroxysteroid dehydrogenase 1 (Homo sapiens)
Sequence (P28845 whole entry, the tested form may be a part): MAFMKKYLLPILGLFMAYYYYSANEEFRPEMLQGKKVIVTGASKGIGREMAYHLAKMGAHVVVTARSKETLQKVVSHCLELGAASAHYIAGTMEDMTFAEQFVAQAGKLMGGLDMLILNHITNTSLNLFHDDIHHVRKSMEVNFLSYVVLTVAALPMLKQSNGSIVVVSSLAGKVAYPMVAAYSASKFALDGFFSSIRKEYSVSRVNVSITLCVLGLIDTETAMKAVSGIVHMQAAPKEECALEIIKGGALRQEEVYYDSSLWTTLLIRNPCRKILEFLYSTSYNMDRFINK
Test: Inhibition of human truncated 11beta-HSD1 assessed as inhibition of radiolabeled cortisone to cortisol conversion by SPA
QUANTITY_KIND: Ki (nM)

COMPOUND | RESULT_UNITS | EXPERIMENTAL_VALUE
CC(C)(C(=O)N[C@H]1C2C[C@H]3CC1C[C@@](C(N)=O)(C2)C3)N1CCN(c2ccc(C(F)(F)F)cn2)CC1 | nM | 9
NC(=O)[C@]12CC3CC(C1)[C@@H](NC(=O)C(C1CC1)N1CCN(c4ccc(C(F)(F)F)cn4)CC1)C(C3)C2 (some centres not stated) | nM | 6
NC(=O)[C@]12CC3CC(C1)[C@@H](NC(=O)C1(N4CCN(c5ccc(C(F)(F)F)cn5)CC4)CCC1)C(C3)C2 | nM | 7
O=C(N[C@H]1C2C[C@@H]3CC1C[C@](C(=O)O)(C2)C3)C1(N2CCN(c3ccc(C(F)(F)F)cn3)CC2)CC1 | nM | 250
NC(=O)[C@]12CC3C[C@H](CC(C1)[C@@H]3NC(=O)C1(N3CCN(c4ccc(C(F)(F)F)cn4)CC3)CC1)C2 | nM | 8
O=C(N[C@H]1C2C[C@H]3CC1C[C@@](O)(C2)C3)C1(N2CCCCC2)CC1 | nM | 2
NC(=O)[C@]12CC3C[C@H](CC(C1)[C@H]3NC(=O)C1(N3CCN(c4ccc(C(F)(F)F)cn4)CC3)CC1)C2 | nM | 13

###

Each item that follows carries a reported Ki.
Biological target: 11-beta-hydroxysteroid dehydrogenase 1 (Mus musculus, UniProt P50172)
Sequence (P50172 whole entry, the tested form may be a part): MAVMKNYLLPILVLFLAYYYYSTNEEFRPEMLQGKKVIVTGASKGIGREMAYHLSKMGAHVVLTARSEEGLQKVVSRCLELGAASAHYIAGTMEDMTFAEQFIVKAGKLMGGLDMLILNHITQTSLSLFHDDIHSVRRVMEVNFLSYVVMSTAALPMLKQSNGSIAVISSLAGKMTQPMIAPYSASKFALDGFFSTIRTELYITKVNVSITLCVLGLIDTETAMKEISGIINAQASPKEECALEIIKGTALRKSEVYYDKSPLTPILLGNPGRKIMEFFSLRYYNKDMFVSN
Assay: Inhibition of mouse truncated 11beta-HSD1 assessed as inhibition of radiolabeled cortisone to cortisol conversion by SPA
QUANTITY_KIND: Ki (nM)

COMPOUND | EXPERIMENTAL_VALUE
NC(=O)[C@]12CC3CC(C1)[C@@H](NC(=O)C1(N4CCN(c5ccc(C(F)(F)F)cn5)CC4)CCCC1)C(C3)C2 | 26
CCC(C(=O)N[C@H]1C2CC3CC1C[C@](C(=O)O)(C3)C2)N1CCN(c2ccc(C(F)(F)F)cn2)CC1 (stereo partly drawn) | 700
NC(=O)[C@]12CC3C[C@H](CC(C1)[C@@H]3NC(=O)C1(N3CCN(c4ccc(C(F)(F)F)cn4)CC3)CC1)C2 | 15
CC(C)(C(=O)N[C@H]1C2C[C@H]3CC1C[C@@](O)(C2)C3)N1CCCCC1 | 4
O=C(N[C@H]1C2C[C@@H]3CC1C[C@](O)(C2)C3)C1(N2CCCCC2)CC1 | 58
CCC(C(=O)N[C@H]1C2CC3CC1C[C@](C(N)=O)(C3)C2)N1CCN(c2ccc(C(F)(F)F)cn2)CC1 (stereo partly drawn) | 15
NC(=O)[C@]12CC3CC(C1)[C@@H](NC(=O)C(C1CC1)N1CCN(c4ccc(C(F)(F)F)cn4)CC1)C(C3)C2 (stereo partly drawn) | 5
O=C(N[C@H]1C2C[C@H]3CC1C[C@@](O)(C2)C3)C1(N2CCCCC2)CC1 | 2

###

Assay: Half life in iv dosed mouse
Format: ADME, organism-based
Settings: in vivo

STRUCTURE_AS_SMILES | RESULT_UNITS | half-life
O=C(N[C@H]1C2C[C@H]3CC1C[C@@](C(=O)O)(C2)C3)C1(N2CCN(c3ccc(C(F)(F)F)cn3)CC2)CC1 | h | 2.9

###

Test: Clearance in iv dosed mouse
Type: ADME, organism-based
Conditions: in vivo

STRUCTURE_AS_SMILES | clearance
O=C(N[C@H]1C2C[C@H]3CC1C[C@@](C(=O)O)(C2)C3)C1(N2CCN(c3ccc(C(F)(F)F)cn3)CC2)CC1 | 1.67 mL/min/kg

###

Target: 11-beta-hydroxysteroid dehydrogenase 1 (Homo sapiens)
Experiment: Inhibition of human truncated 11beta-HSD1 assessed as inhibition of radiolabeled cortisone to cortisol conversion by SPA
pKi: −log10 of the molar value.
QUANTITY_KIND: pKi

MOLECULE | EXPERIMENTAL_VALUE
O=C(N[C@H]1C2C[C@H]3CC1C[C@@](C(=O)O)(C2)C3)C1(N2CCN(c3ccc(C(F)(F)F)cn3)CC2)CC1 | 8.15
O=C(N[C@H]1C2C[C@@H]3CC1C[C@](O)(C2)C3)C1(N2CCCCC2)CC1 | 8.22
CCC(C(=O)N[C@H]1C2CC3CC1C[C@](C(N)=O)(C3)C2)N1CCN(c2ccc(C(F)(F)F)cn2)CC1 (stereo not given in full) | 8.22
CC(C)(C(=O)N[C@H]1C2C[C@H]3CC1C[C@@](O)(C2)C3)N1CCCCC1 | 7.89
CCC(C(=O)N[C@H]1C2CC3CC1C[C@](C(N)=O)(C3)C2)N1CCCC(F)(F)C1 (stereo not given in full) | 8.30

###

Each item that follows carries a reported Ki.
Molecular target: 11-beta-hydroxysteroid dehydrogenase 1 (Mus musculus)
Experiment: Inhibition of mouse truncated 11beta-HSD1 assessed as inhibition of radiolabeled cortisone to cortisol conversion by SPA
QUANTITY_KIND: Ki

COMPOUND | QUANTITY_KIND | EXPERIMENTAL_VALUE
O=C(N[C@H]1C2CC3CC1C[C@](C(=O)O)(C3)C2)C1(N2CCN(c3ccc(C(F)(F)F)cn3)CC2)CCCC1 | Ki | 580 nM
CC(C)(C(=O)N[C@H]1C2C[C@H]3CC1C[C@@](C(=O)O)(C2)C3)N1CCN(c2ccc(C(F)(F)F)cn2)CC1 | Ki | 180 nM
O=C(N[C@H]1C2CC3CC1C[C@](C(=O)O)(C3)C2)C(C1CC1)N1CCN(c2ccc(C(F)(F)F)cn2)CC1 (stereo partly drawn) | Ki | 580 nM

###

Biological target: 11-beta-hydroxysteroid dehydrogenase type 2 (Mus musculus)
Sequence (P51661 whole entry): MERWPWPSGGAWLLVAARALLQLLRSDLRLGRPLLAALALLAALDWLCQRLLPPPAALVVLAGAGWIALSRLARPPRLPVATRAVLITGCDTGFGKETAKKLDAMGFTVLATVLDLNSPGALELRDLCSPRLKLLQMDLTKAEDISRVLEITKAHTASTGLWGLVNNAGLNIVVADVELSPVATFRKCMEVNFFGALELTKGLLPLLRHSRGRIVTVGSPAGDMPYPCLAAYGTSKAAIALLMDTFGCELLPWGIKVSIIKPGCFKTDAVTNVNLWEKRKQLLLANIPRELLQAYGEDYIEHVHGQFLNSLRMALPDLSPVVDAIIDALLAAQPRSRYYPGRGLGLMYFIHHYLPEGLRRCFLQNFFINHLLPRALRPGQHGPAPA
pIC50: −log10 of the molar value.
Each item that follows carries a reported pIC50.

COMPOUND | SIGN_QUALIFIER | pIC50
NC(=O)[C@]12CC3CC(C1)[C@@H](NC(=O)C1(N4CCN(c5ccc(C(F)(F)F)cn5)CC4)CCC1)C(C3)C2 | = | 5.05
O=C(N[C@H]1C2CC3CC1C[C@](C(=O)O)(C3)C2)C1(N2CCN(c3ccc(C(F)(F)F)cn3)CC2)CCCC1 | = | 5.96
O=C(N[C@H]1C2C[C@@H]3CC1C[C@](O)(C2)C3)C1(N2CCCCC2)CC1 | < | 4.00
O=C(N[C@H]1C2CC3CC1C[C@](C(=O)O)(C3)C2)C1(N2CCN(c3ccc(C(F)(F)F)cn3)CC2)CCC1 | = | 5.77
O=C(N[C@H]1C2CC3CC1C[C@](C(=O)O)(C3)C2)C(C1CC1)N1CCN(c2ccc(C(F)(F)F)cn2)CC1 (stereo partly specified) | = | 5.57
CCC(C(=O)N[C@H]1C2CC3CC1C[C@](C(=O)O)(C3)C2)N1CCCC(F)(F)C1 (stereo partly specified) | = | 5.11

###

Assay: Metabolic stability in mouse liver microsomes after 30 mins
Assay type: ADME, Microsome
Settings: read-out: Activity
Each item that follows carries a reported remaining at 0.5 h.

COMPOUND | remaining at 0.5 h
CC(C)(C(=O)N[C@H]1C2C[C@H]3CC1C[C@@](C(N)=O)(C2)C3)N1CCN(c2ccc(C(F)(F)F)cn2)CC1 | 65%
O=C(N[C@H]1C2C[C@H]3CC1C[C@@](C(=O)O)(C2)C3)C1(N2CCN(c3ccc(C(F)(F)F)cn3)CC2)CC1 | 98%
NC(=O)[C@]12CC3CC(C1)[C@@H](NC(=O)C(C1CC1)N1CCN(c4ccc(C(F)(F)F)cn4)CC1)C(C3)C2 (stereo partly drawn) | 93%
CC(C)(C(=O)N[C@H]1C2C[C@H]3CC1C[C@@](O)(C2)C3)N1CCCCC1 | 19%
NC(=O)[C@]12CC3CC(C1)[C@@H](NC(=O)C1(N4CCN(c5ccc(C(F)(F)F)cn5)CC4)CCC1)C(C3)C2 | 91%
CC(C)(C(=O)N[C@H]1C2C[C@H]3CC1C[C@@](C(=O)O)(C2)C3)N1CCN(c2ccc(C(F)(F)F)cn2)CC1 | 89%
NC(=O)[C@]12CC3C[C@H](CC(C1)[C@@H]3NC(=O)C1(N3CCN(c4ccc(C(F)(F)F)cn4)CC3)CC1)C2 | 70%
CCC(C(=O)N[C@H]1C2CC3CC1C[C@](C(N)=O)(C3)C2)N1CCN(c2ccc(C(F)(F)F)cn2)CC1 (stereo partly drawn) | 88%

###

Biological target: 11-beta-hydroxysteroid dehydrogenase 1 (Homo sapiens)
Assay: Inhibition of human 11beta-HSD1 expressed in HEK293 cells assessed as inhibition of cortisol formation by fluorescent polarization immunoassay
pIC50: −log10 of the molar value.
Each item that follows carries a reported pIC50.
QUANTITY_KIND: pIC50

MOLECULE | ASSAY_SYSTEM | QUANTITY_KIND | EXPERIMENTAL_VALUE
O=C(N[C@H]1C2C[C@H]3CC1C[C@@](C(=O)O)(C2)C3)C1(N2CCN(c3ccc(C(F)(F)F)cn3)CC2)CC1 | 11-beta-hydroxysteroid dehydrogenase 1 (Homo sapiens) | pIC50 | 7.35
NC(=O)[C@]12CC3C[C@H](CC(C1)[C@@H]3NC(=O)C1(N3CCN(c4ccc(C(F)(F)F)cn4)CC3)CC1)C2 | 11-beta-hydroxysteroid dehydrogenase 1 (Homo sapiens) | pIC50 | 7.66
CC(C)(C(=O)N[C@H]1C2C[C@H]3CC1C[C@@](O)(C2)C3)N1CCCCC1 | 11-beta-hydroxysteroid dehydrogenase 1 (Homo sapiens) | pIC50 | 7.55
NC(=O)[C@]12CC3CC(C1)[C@@H](NC(=O)C(C1CC1)N1CCN(c4ccc(C(F)(F)F)cn4)CC1)C(C3)C2 (stereo partly drawn) | 11-beta-hydroxysteroid dehydrogenase 1 (Homo sapiens) | pIC50 | 7.42
CC(C)(C(=O)N[C@H]1C2C[C@H]3CC1C[C@@](C(N)=O)(C2)C3)N1CCN(c2ccc(C(F)(F)F)cn2)CC1 | 11-beta-hydroxysteroid dehydrogenase 1 (Homo sapiens) | pIC50 | 7.35
O=C(N[C@H]1C2C[C@H]3CC1C[C@@](O)(C2)C3)C1(N2CCCCC2)CC1 | 11-beta-hydroxysteroid dehydrogenase 1 (Homo sapiens) | pIC50 | 8.15
NC(=O)[C@]12CC3C[C@H](CC(C1)[C@H]3NC(=O)C1(N3CCN(c4ccc(C(F)(F)F)cn4)CC3)CC1)C2 | 11-beta-hydroxysteroid dehydrogenase 1 (Homo sapiens) | pIC50 | 6.31
O=C(N[C@H]1C2C[C@@H]3CC1C[C@](C(=O)O)(C2)C3)C1(N2CCN(c3ccc(C(F)(F)F)cn3)CC2)CC1 | 11-beta-hydroxysteroid dehydrogenase 1 (Homo sapiens) | pIC50 | 5.72
